Origin of values: paper PMC9146228

test system: T. cruzi (Dm28c-Luc) intracellular amastigotes; assay: Trypanocidal activity against intracellular amastigotes in infected Vero cell monolayers; type: cell-based, Trypanosoma cruzi; conditions: selectivity index vs Vero cells
reportedMetric: Intracellular Amastigotes SI (CC50 of Vero cells/IC50)

Solved cases below.
structureSmiles | result
Nc1c(C2=NCCS2)cnn1-c1cccc(Br)c1 | >18.7
Nc1c(C2=NCCS2)cnn1-c1ccc(Cl)cc1Cl | <5

May I ask what Intracellular Amastigotes SI (CC50 of Vero cells/IC50) has been recorded for `Nc1c(C2=NCCS2)cnn1-c1cccc(Cl)c1Cl` ? >44.9

---

Overview of reported melting point across a group of compounds:

Examples with answers:
structureSmiles | melting point
Nc1c(C2=NCCS2)cnn1-c1cccc(Cl)c1Cl | 188 to 190 °C
Clc1ccc(-n2cc(C3=NCCS3)cn2)cc1 | 130 to 133 °C
Fc1ccc(-n2cc(C3=NCCS3)cn2)cc1 | 131 to 133 °C

Switching to the query record.
Form field: reported melting point of `Nc1c(C2=NCCS2)cnn1-c1cccc(F)c1` 230 to 232 °C

---

Each entry below lists one item and its recorded melting point value.

Check out these entries, answers already filled in.
compound | melting point
Nc1c(C2=NCCS2)cnn1-c1cccc(Br)c1 [Compound 1j] | 171 to 173 °C
Nc1c(C2=NCCS2)cnn1-c1ccccc1 [Compound 1a] | 176 to 178 °C
Nc1c(C2=NCCS2)cnn1-c1cccc(Cl)c1 [Compound 1b] | 186 to 189 °C
Nc1c(C2=NCCS2)cnn1-c1ccc(Cl)cc1 [Compound 1f] | 283 to 285 °C
Fc1cccc(-n2cc(C3=NCCS3)cn2)c1 [Compound 2h] | 92 to 94 °C

Kindly consider the entry below.
melting point lookup needed for COc1ccc(-n2ncc(C3=NCCS3)c2N)cc1 [Compound 1k] , thanks. 164 to 166 °C

---

test system: T. cruzi (Dm28c-Luc) trypomastigotes; assay: microbe, parasite or virus in culture; format: cell-based, Trypanosoma cruzi; settings: Trypanosoma cruzi; Dm28c-Luc, 24 h, mean ± SD; read-out: Trypanocidal Activity Trypomastigotes IC90
IC90: recorded values

Would you please look over these solved cases?
structureSmiles | result
Nc1c(C2=NCCS2)cnn1-c1ccccc1 | > 100 µM
Clc1cc(Cl)cc(-n2cc(C3=NCCS3)cn2)c1 | > 100 µM

--- query ---
Lab note: need IC90 for `Nc1c(C2=NCCS2)cnn1-c1ccc(Cl)c(Cl)c1` on T. cruzi (Dm28c-Luc) trypomastigotes, anyone have it? > 100 µM

---

test system: T. cruzi (Dm28c-Luc) trypomastigotes; experiment: microbe, parasite or virus in culture; type: cell-based, Trypanosoma cruzi; settings: selectivity index vs Vero cells
reportedMetric: Trypomastigotes SI (CC50 of Vero cells/IC50)

Worked cases, answers included:
compound | result
COc1ccc(-n2ncc(C3=NCCS3)c2N)cc1 | >39.9
Nc1c(C2=NCCS2)cnn1-c1ccc(Br)cc1 | >10.1
Nc1c(C2=NCCS2)cnn1-c1ccc(Cl)cc1Cl | <5
Nc1c(C2=NCCS2)cnn1-c1cccc(Cl)c1Cl | <5
Nc1c(C2=NCCS2)cnn1-c1cccc(Br)c1 | >9.5

# lookup: Trypomastigotes SI (CC50 of Vero cells/IC50) of `Nc1c(C2=NCCS2)cnn1-c1ccc(Cl)c(Cl)c1` <5

Give the measured Trypomastigotes SI (CC50 of Vero cells/IC50) of `Nc1c(C2=NCCS2)cnn1-c1cccc(Cl)c1` . >5.2

Trypomastigotes SI (CC50 of Vero cells/IC50) lookup needed for `Clc1cc(Cl)cc(-n2cc(C3=NCCS3)cn2)c1` , thanks. <5

Please report the recorded Trypomastigotes SI (CC50 of Vero cells/IC50) for `Nc1c(C2=NCCS2)cnn1-c1cccc(F)c1` . <5

Trypomastigotes SI (CC50 of Vero cells/IC50) for O=C(Cn1ccnc1[N+](=O)[O-])NCc1ccccc1 [Bz, benznidazole, reference compound] ? >18.9

Any idea what its Trypomastigotes SI (CC50 of Vero cells/IC50) is? The compound is `Nc1c(C2=NCCS2)cnn1-c1ccc(F)cc1` <5

---

system: T. cruzi (Dm28c-Luc) intracellular amastigotes; assay: Trypanocidal activity against intracellular amastigotes in infected Vero cell monolayers; type: cell-based, Trypanosoma cruzi; settings: selectivity index vs Vero cells
Reported Intracellular Amastigotes SI (CC50 of Vero cells/IC50) values for a set of molecules

molecule | targetOrTestSystem | result
Nc1c(C2=NCCS2)cnn1-c1ccc(Cl)c(Cl)c1 [Compound 1e] | T. cruzi (Dm28c-Luc) intracellular amastigotes | <5

# lookup: Intracellular Amastigotes SI (CC50 of Vero cells/IC50) of Nc1c(C2=NCCS2)cnn1-c1cccc(F)c1 [Compound 1h] <5

GET /values?readout=Intracellular Amastigotes SI (CC50 of Vero cells/IC50)&item= Clc1cc(Cl)cc(-n2cc(C3=NCCS3)cn2)c1 [Compound 2d] <5
